# tested.on: T1, p5 peptide of EGFL7 (human)
# T1 construct: also called Peptide P5
# T1 peptide: RACSTYRTIYRTA
# experiment: SPR (Biacore), IgG over immobilized P5 peptide at 37 C, n = 2
measurement.label: koff (s⁻¹)
One number for each entry, in s⁻¹.

Need koff of 18F7.v6B IgG (antibody, V domains shown, IgG; Variant of 18F7.v6) VH: EVQLVESGGGLVQPGGSLRLSCAASGYTFIDYYMNWVRQAPGKGLEWVGDINLDSGGTHYNQKFKGRFTISRDKSKNTAYLQMNSLRAEDTAVYYCAREGVYHDYDDYAMDYWGQGTLVTVSS VL: DIQMTQSPSSLSASVGDRVTITCRTSQSLVHINGITYLHWYQQKPGKAPKLLIYRVSNRFSGVPSRFSGSGSGTDFTLTISSLQPEDFATYYCGQSTHVPLTFGQGTKVEIK , thanks. 0.000638

Can you handle 18F7.v6A IgG (antibody, V domains shown, IgG; Variant of 18F7.v6) VH: EVQLVESGGGLVQPGGSLRLSCAASGYTFIDYYMNWVRQAPGKGLEWVGDINLDNGGTHYNQKFKGRFTISRDKSKNTAYLQMNSLRAEDTAVYYCAREGVYHDYDDYAMDYWGQGTLVTVSS VL: DIQMTQSPSSLSASVGDRVTITCRTSQSLVHISGITYLHWYQQKPGKAPKLLIYRVSNRFSGVPSRFSGSGSGTDFTLTISSLQPEDFATYYCGQSTHVPLTFGQGTKVEIK next? 0.00137

// switching to the query binder
Need koff of 18F7.v6D IgG (antibody, V domains shown, IgG; Variant of 18F7.v6) VH: EVQLVESGGGLVQPGGSLRLSCAASGYTFIDYYMNWVRQAPGKGLEWVGDINLDSGGTHYNQKFKGRFTISRDKSKNTAYLQMNSLRAEDTAVYYCAREGVYHDYDDYAMDYWGQGTLVTVSS VL: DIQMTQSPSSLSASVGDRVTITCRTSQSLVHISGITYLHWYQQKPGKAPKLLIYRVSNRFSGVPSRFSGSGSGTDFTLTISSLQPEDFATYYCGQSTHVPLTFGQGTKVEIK , thanks. 0.00232

Hello, the source for this data is patent US20140051120A1, in case you need it.
